target: T1, HPVHHYQ-NH2 peptide; test: RNase A footprinting
T1 chain: HPVHHYQ-NH2
Ends that are not written are not given here.
assay.metric: Kd
Just so you know, I need the unit written after the number.

Input GGCGUCACACCUUCGGGUGAAGUCGCC (structured_RNA) [hp-AS] . Output Kd: 16 µM
